Examples of molecules with documented z-score follow.
- assay.details: S. cerevisiae RM11-1a growth modifiers, primary screen, strain RM11-1a, OD600, basal, 24 h (AID 1177);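 note: cultures grown under basal conditions with no added stressor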
- test.settings: OD600, 24 h, higher = more signal, called active from +8 up or from −8 down
Activity calls are given as the source filed them.

Solved entries:
{"columns": ["molecule", "z-score"],
 "data": [
  ["Cc1ccc(S[C@]2(C(=O)NCC(C)C)CC(=O)N(Cc3ccccc3)[C@@H]2c2ccc(CO)cc2I)cc1", "0.341 (inactive)"],
  ["COC(=O)[C@@]1(Cc2ccc(OC)cc2)[C@H]2c3cc(C(=O)N4CCCC4)n(Cc4ccccn4)c3C[C@H]2CN1C(=O)c1ccccc1", "1.13 (inactive)"],
  ["C=CCNC(=O)[C@@H]1[C@H]2C(=O)O[C@H](c3ccccc3)[C@H](c3ccccc3)N2[C@H](c2ccc(O)cc2)[C@@]12C(=O)N(C(=O)OCCOC)c1ccccc12", "1.01 (inactive)"],
  ["COCCOC(=O)N1C(=O)[C@@]2(c3cc(C#CCCO)ccc31)[C@H](c1ccc(O)cc1)N1[C@H](c3ccccc3)[C@H](c3ccccc3)OC(=O)[C@H]1[C@@H]2C(N)=O", "0.565 (inactive)"],
  ["CC(=O)NCCCC[C@@H]1NC(=O)[C@H]2C[C@@H](C(=O)NCCCCCC[N+](C)(C)C)[C@@H](c3cccc(OCCO)c3)N2C1=O", "-0.718 (inactive)"]
]}

Kindly note the recorded z-score for C#CCN(C(/C=C/c1ccccc1)CO)C(C(=O)O)c1ccccc1 (stereo not given) , which is -0.643 (inactive)

Lookup result for "[N-]=[N+]=NCc1ccccc1C[C@]1(C(=O)O)N=C(c2ccc(OCCCO)cc2)O[C@H]1c1ccccc1" ; measured z-score: -0.923 (inactive)

Looking up O=C1C2C=CC(C(O)c3ccc(-c4ccccc4)s3)N(n3cnnc3)C2C(=O)N1Cc1ccccc1 (stereo not given) , I found its z-score recorded as 0.766 (inactive)

Record "COC(=O)[C@@]1(Cc2ccc(OC)cc2)[C@H]2c3cc(C(=O)N(C)C)n(Cc4c(OC)[nH]cc(C)c4=O)c3C[C@H]2CN1C(=O)c1ccccc1" . Reported z-score: -0.838 (inactive)

----------
Quick reference: composite z-score of the listed items.
- Test system: XIP peptide (Xip251-270) binding
- assay.details: small-molecule binders of XIP peptide, primary screen, biochemical, small-molecule microarray, fluorescence 635/667 nm, 0.1 µg/mL protein (AID 1182)
- test.settings: fluorescent protein binding, 635 nm, higher = more signal, called active from +8 up or from −8 down
In your answer, state the number alone without any accompanying words.

{"columns": ["compound", "composite z-score"],
 "data": [
  ["COCCOC(=O)N1C(=O)[C@@]2(c3cc(C#CCCO)ccc31)[C@H](C(=O)NC[C@H](O)c1ccccc1)[C@H]1C(=O)O[C@H](c3ccccc3)[C@H](c3ccccc3)N1[C@@H]2c1ccc(O)cc1", -0.246]
]}

composite z-score in this record for COC(=O)c1ccc(OC)c(/C=C\CC(OC(C)=O)c2ccccc2)c1 (centres undefined) : 0.322

In plain terms, "O=C1N(CCS(=O)(=O)c2ccccc2)Cc2ccccc2C[C@]12N=C(c1ccc(OCCCO)cc1)O[C@@H]2c1ccccc1" has a documented composite z-score of 0.194

Reported composite z-score of "O=C1O[C@H](c2ccccc2)[C@H](c2ccccc2)N2[C@H]1[C@@H](C(=O)Nc1nc3ccccc3s1)[C@]1(C(=O)Nc3ccccc31)[C@H]2c1ccc(O)cc1" : -0.0105
